Assay: Acute toxicity, single oral administration
Conditions: mouse, in vivo; single oral administration to mice; read-out: Toxicity LD 50
As shown below, each of these compounds has a reported LD50 value.

The following compounds have reported results that may help.
- COc1ccc(OC)c(C(=O)C#CC(=O)O)c1: 625 to 1250 mg/kg
- COc1cc(C(=O)C#CC(C)O)cc(OC)c1OC (centres unmarked): 156 to 312 mg/kg
- CCOC(C)OCC#CC(=O)c1ccc(OC)c(OC)c1OC (centres unmarked): 312 to 625 mg/kg
- O=C(O)C#CC(=O)c1ccc2c(c1)OCO2: 625 to 1250 mg/kg
- O=C(C#CCO)c1ccc(F)cc1: 80 to 156 mg/kg

Challenge: Reported LD50, compound COC(=O)C#CC(=O)c1cc(OC)ccc1OC : ____
Response given: > 5000 mg/kg

Challenge: If you can, please state the reported LD50 value of COCCOCCOC(=O)C#CC(=O)c1ccc(OC)cc1 .
Response given: 1000 to 2000 mg/kg

Challenge: Recorded LD50 for Cc1ccc(C(=O)C#CCO)cc1 , please?
Response given: 80 to 156 mg/kg
